- Test system: Yellow nutsedge
- experimental-protocol: Post-emergence herbicide test
- Type: in vivo
- conditions: Cyperus, 11.21 kg/ha, read-out: % plant inhibition (Yens)
- Text: Topsoil is placed in aluminum pans having holes in the bottom and compacted to a depth of 0.95 to 1.27 cm from the top of the pan. A predetermined number of seeds of each of several dicotyledonous and monocotyledonous annual plant species and/or vegetative propagules for the perennial plant species are placed on the soil and pressed into the soil surface. The seeds and/or vegetative propagules are covered with soil and leveled. […]
recorded-endpoint: inhibition at 11210 g/ha (%)
Give the value in % but do not write % after it.

Cn1nc(-c2ccc(Cl)cc2)c(Cl)c1C(F)(F)Cl	20
Cn1nc(C(F)(F)F)c(Cl)c1-c1cc(F)ccc1F	0
Cn1nc(-c2ccc(Cl)cc2Cl)c(Cl)c1C(F)(F)F	20
Cn1nc(-c2cc(Oc3ccc(C(F)(F)F)cc3)c(Cl)cc2F)c(Cl)c1C(F)(F)F	0
Cn1nc(C(F)(F)F)c(Cl)c1-c1ccc(Cl)cc1F	10
Cn1nc(C(F)(F)F)c(Br)c1-c1cc(F)ccc1F	0
COc1cc(-c2c(Cl)c(C(F)(F)F)nn2C)c(F)cc1N	0
CNC(=O)Cc1cc(-c2nn(C)c(C(F)(F)F)c2Cl)c(F)cc1Cl	10

Kindly note the recorded inhibition at 11210 g/ha for `Cn1nc(-c2cc(NC(=O)C3(Br)CC3)c(Cl)cc2F)c(Cl)c1C(F)(F)F` , which is 0

---

- Test system: Velvetleaf
- experimental-protocol: Pre-emergence herbicide test
- Assay type: in vivo
- conditions: Abutilon theophrasti, 11.21 kg/ha, read-out: % plant inhibition (Vele)
# inhibition at 11210 g/ha annotations
Give the value in % but do not write % after it.

Please review the following examples before continuing.
CCS(=O)(=O)N(c1cc(-c2nn(C)c(C(F)(F)F)c2Cl)c(Cl)cc1Cl)S(=O)(=O)CC	20
Cn1nc(-c2cc(NC(=O)C(F)(F)F)c(Cl)cc2Cl)c(Cl)c1C(F)(F)F	80
Cn1nc(-c2cc(CC(=O)O)c(Cl)cc2F)c(Cl)c1C(F)(F)F	100
Cn1nc(-c2cc(CBr)c(Cl)cc2F)c(Cl)c1C(F)(F)F	100
Cn1nc(-c2ccc(Cl)cc2)c(Cl)c1C(F)(F)Cl	90
Cn1nc(-c2cc(NC(=O)C3(Br)CC3)c(Cl)cc2F)c(Cl)c1C(F)(F)F	70
Cn1nc(-c2cc(S(=O)(=O)Cl)c(Cl)cc2Cl)c(Cl)c1C(F)(F)F	90
Cn1nc(-c2cc(F)c(Cl)cc2Cl)c(Cl)c1C(F)(F)F	100

API: the following record is the query input.
Record `Cn1nc(C(F)(F)F)c(Br)c1-c1cc(F)ccc1F` has Velvetleaf inhibition at 11210 g/ha equal to 40

---

# inhibition at 11210 g/ha annotations
- System: Velvetleaf
- experimental-protocol: Pre-emergence herbicide test
- Type: in vivo
- conditions: Abutilon theophrasti, 11.21 kg/ha, read-out: % plant inhibition (Vele)
Give the value in % but do not write % after it.

Please review the following examples before continuing.
C#CCOc1cc(-c2nn(C)c(C(F)(F)F)c2Cl)c(F)cc1Cl	100
Cn1nc(-c2ccc(Cl)cc2)c(Cl)c1C(F)(F)F	100
Cn1nc(-c2cc(CC(N)=O)c(Cl)cc2F)c(Cl)c1C(F)(F)F	100
CC(=O)OCc1cc(-c2nn(C)c(C(F)(F)F)c2Cl)c(F)cc1Cl	100
Cn1nc(C(F)(F)Cl)c(Cl)c1-c1ccc(Cl)cc1	80
Cn1nc(-c2ccc(Cl)cc2Cl)c(Cl)c1C(F)(F)F	100
Cn1nc(C(F)(F)F)c(Cl)c1-c1cc(F)c(Cl)cc1Cl	100
CNC(=O)Cc1cc(-c2nn(C)c(C(F)(F)F)c2Cl)c(F)cc1Cl	100

API: the following record is the query input.
Kindly note the recorded inhibition at 11210 g/ha for `COc1cc(-c2c(Cl)c(C(F)(F)F)nn2C)c(F)cc1[N+](=O)[O-]` , which is 90

---

- System: Indian Mustard
- experimental-protocol: Pre-emergence herbicide test
- Format: in vivo
- conditions: Brassica juncea, 1.12 kg/ha, read-out: % plant inhibition (Inmu)
# inhibition at 1120 g/ha annotations
Give the value in % but do not write % after it.

Please review the following examples before continuing.
CCOC(=O)c1cc(-c2nn(C)c(C(F)(F)F)c2Cl)c(F)cc1Cl	100
CCOC(=O)C(C)=Cc1cc(-c2nn(C)c(C(F)(F)F)c2Cl)c(F)cc1Cl	90
Cn1nc(-c2cc(N)c(Cl)cc2F)c(Cl)c1C(F)F	90
CC(C)OC(=O)COc1cc(-c2nn(C)c(C(F)(F)F)c2Cl)c(F)cc1Cl	30
CCOC(=O)C(C)Oc1cc(-c2nn(C)c(C(F)(F)F)c2Cl)c(F)cc1Br (stereo not drawn)	90
COC(=O)C(C)OC(=O)c1cc(-c2nn(C)c(C(F)(F)F)c2Cl)c(F)cc1Cl (stereo not drawn)	100
Cn1nc(-c2cc(OCC(=O)OC(C)(C)C)c(Cl)cc2F)c(Cl)c1C(F)(F)F	0
COCCOc1cc(-c2nn(C)c(C(F)(F)F)c2Cl)c(F)cc1Cl	100
CCOC(=O)C(C)Oc1cc(-c2nn(C)c(C(F)(F)F)c2Cl)c(F)cc1Cl (stereo not drawn)	100
Cn1nc(-c2cc(C(C)(C)C#N)c(Cl)cc2F)c(Cl)c1C(F)(F)F	40

Kindly note the recorded inhibition at 1120 g/ha for Cn1nc(-c2cc(C3OCCS3)c(Cl)cc2F)c(Cl)c1C(F)(F)F (stereo not drawn) , which is 100

Kindly note the recorded inhibition at 1120 g/ha for `Cn1nc(-c2cc(NS(C)(=O)=O)c(Cl)cc2Cl)c(Cl)c1C(F)(F)F` , which is 90

---

- Test system: Downy Brome
- experimental-protocol: Post-emergence herbicide test
- Format: in vivo
- conditions: Bromus tectorum, 1.12 kg/ha, read-out: % plant inhibition (Dobr)
recorded-endpoint: inhibition at 1120 g/ha (%)
Give the value in % but do not write % after it.

Cn1nc(-c2cc(C3OCCO3)c(Cl)cc2F)c(Cl)c1C(F)(F)F	100
CC(O)c1cc(-c2nn(C)c(C(F)(F)F)c2Cl)c(F)cc1Cl (centres unmarked)	0
Cc1cc(-c2nn(C)c(C(F)F)c2Cl)c(F)cc1Cl	0
Cc1cc(-c2nn(C)c(C(F)(F)F)c2Br)c(F)cc1Cl	0

API: the following record is the query input.
Kindly note the recorded inhibition at 1120 g/ha for `CCOC(=O)CSCc1cc(-c2nn(C)c(C(F)(F)F)c2Cl)c(F)cc1Cl` , which is 60

---

- Test system: Indian Mustard
- experimental-protocol: Pre-emergence herbicide test
- Format: in vivo
- conditions: Brassica juncea, 1.12 kg/ha, read-out: % plant inhibition (Inmu)
# inhibition at 1120 g/ha annotations

Cn1nc(-c2cc(C3SCCS3)c(Cl)cc2F)c(Cl)c1C(F)(F)F [Compound 101]	100%
COCOc1cc(-c2nn(C)c(C(F)(F)F)c2Cl)c(F)cc1Cl [Compound 308]	100%
Cn1nc(-c2cc(COCCF)c(Cl)cc2F)c(Cl)c1C(F)(F)F [Compound 116]	90%

Kindly note the recorded inhibition at 1120 g/ha for CC(C)CCOC(=O)COc1cc(-c2nn(C)c(C(F)(F)F)c2Cl)c(F)cc1Cl [Compound 288] , which is 20%

Kindly note the recorded inhibition at 1120 g/ha for C#CCOc1cc(-c2c(Cl)c(C(F)(F)F)nn2C)c(F)cc1Cl [Compound 76] , which is 60%

Kindly note the recorded inhibition at 1120 g/ha for Cc1cc(-c2nn(C)c(C(F)(F)F)c2Br)c(F)cc1Cl [Compound 125] , which is 100%

Kindly note the recorded inhibition at 1120 g/ha for COc1cc(-c2nn(C)c(C(F)(F)F)c2Cl)c(F)cc1Br [Compound 94] , which is 100%

---

- System: Seedling johnsongrass
- experimental-protocol: Pre-emergence herbicide test
- Assay type: in vivo
- conditions: Sorghum halepense, 11.21 kg/ha, read-out: % plant inhibition (Sejg)
# inhibition at 11210 g/ha annotations
Give the value in % but do not write % after it.

Please review the following examples before continuing.
Cn1nc(-c2cc(N3CCOCC3)c(Cl)cc2F)c(Cl)c1C(F)(F)F	90
Cn1nc(-c2cc(Oc3ccc(C(F)(F)F)cc3)c(Cl)cc2F)c(Cl)c1C(F)(F)F	20
Cn1nc(-c2cc(S(=O)(=O)Cl)c(Cl)cc2Cl)c(Cl)c1C(F)(F)F	0

Kindly note the recorded inhibition at 11210 g/ha for `Cn1nc(-c2cc(NC(=O)C3(Br)CC3)c(Cl)cc2F)c(Cl)c1C(F)(F)F` , which is 70
